experiment: In vivo formation of NAFB1 and NAHFB1 in rat kidney and liver (HPLC-ESI-MS/MS); set-up: unit not given here; conditions: Liver; treatment FB1 2 mg/kg BW ip, 5 days
observable: N-acyl-derivative in tissue sample, analysis a

compound=CCCCCCCCCCCCCCCCCCCC(=O)N[C@@H](C)[C@@H](O)C[C@H](O)CCCC[C@@H](O)C[C@H](C)C[C@H](O)[C@H](O)[C@H](C)CCCC result=0,0
compound=CCCCCCCCCCCCCCCC(=O)N[C@@H](C)[C@@H](O)C[C@H](O)CCCC[C@@H](O)C[C@H](C)C[C@H](O)[C@H](O)[C@H](C)CCCC result=0,0
compound="CCCCCCCCCCCCCCCCCCCCCCCC(=O)NC(C)C(O)CC(O)CCCCC(O)CC(C)CC(OC(=O)CC(CC(=O)O)C(=O)O)C(OC(=O)CC(CC(=O)O)C(=O)O)C(C)CCCC (stereo not shown)" result=9,0
compound=CCCCCCCCCCCCCCCCCCCCCCCC(=O)N[C@@H](C)[C@@H](O)C[C@H](O)CCCC[C@@H](O)C[C@H](C)C[C@H](O)[C@H](O)[C@H](C)CCCC result=0,0
compound="CCCCCCCCCCCCCCCCCC(=O)NC(C)C(O)CC(O)CCCCC(O)CC(C)CC(OC(=O)CC(CC(=O)O)C(=O)O)C(OC(=O)CC(CC(=O)O)C(=O)O)C(C)CCCC (stereo not shown)" result=3,0
compound="CCCCCCCCCCCCCCCC(=O)NC(C)C(O)CC(O)CCCCC(O)CC(C)CC(OC(=O)CC(CC(=O)O)C(=O)O)C(OC(=O)CC(CC(=O)O)C(=O)O)C(C)CCCC (stereo not shown)" result=8,4
compound="CCCCCCCCCCCCCCCCCCCC(=O)NC(C)C(O)CC(O)CCCCC(O)CC(C)CC(OC(=O)CC(CC(=O)O)C(=O)O)C(OC(=O)CC(CC(=O)O)C(=O)O)C(C)CCCC (stereo not shown)" result=0,0

---

assay: In vivo formation of NAFB1 and NAHFB1 in rat kidney and liver (HPLC-ESI-MS/MS); design: unit not given here; settings: Kidney; treatment FB1 0,5 mg/kg BW ip, 5 days
observable: N-acyl-derivative in tissue sample, mean

compound=CCCCCCCCCCCCCCCCCCCC(=O)N[C@@H](C)[C@@H](O)C[C@H](O)CCCC[C@@H](O)C[C@H](C)C[C@H](O)[C@H](O)[C@H](C)CCCC result=0,0
compound="CCCCCCCCCCCCCCCC(=O)NC(C)C(O)CC(O)CCCCC(O)CC(C)CC(OC(=O)CC(CC(=O)O)C(=O)O)C(OC(=O)CC(CC(=O)O)C(=O)O)C(C)CCCC (centres unmarked)" result=8,2
compound="CCCCCCCCCCCCCCCCCCCCCC(=O)NC(C)C(O)CC(O)CCCCC(O)CC(C)CC(OC(=O)CC(CC(=O)O)C(=O)O)C(OC(=O)CC(CC(=O)O)C(=O)O)C(C)CCCC (centres unmarked)" result=0,7
compound=CCCCCCCC/C=C\CCCCCCCCCCCCCC(=O)N[C@@H](C)[C@@H](O)C[C@H](O)CCCC[C@@H](O)C[C@H](C)C[C@H](O)[C@H](O)[C@H](C)CCCC result=0,0
compound=CCCCCCCCCCCCCCCCCC(=O)N[C@@H](C)[C@@H](O)C[C@H](O)CCCC[C@@H](O)C[C@H](C)C[C@H](O)[C@H](O)[C@H](C)CCCC result=0,2

---

test: In vivo formation of NAFB1 and NAHFB1 in rat kidney and liver (HPLC-ESI-MS/MS); set-up: unit not given here; details: Kidney; treatment HFB1 1 mg/kg BW ip, 5 days
Reported values of N-acyl-derivative in tissue sample, mean for individual entries
observable: N-acyl-derivative in tissue sample, mean

molecule=CCCCCCCC/C=C\CCCCCCCCCCCCCC(=O)N[C@@H](C)[C@@H](O)C[C@H](O)CCCC[C@@H](O)C[C@H](C)C[C@H](O)[C@H](O)[C@H](C)CCCC result=9,3
molecule=CCCCCCCCCCCCCCCCCCCC(=O)N[C@@H](C)[C@@H](O)C[C@H](O)CCCC[C@@H](O)C[C@H](C)C[C@H](O)[C@H](O)[C@H](C)CCCC result=1,8
molecule=CCCCCCCCCCCCCCCCCCCCCC(=O)N[C@@H](C)[C@@H](O)C[C@H](O)CCCC[C@@H](O)C[C@H](C)C[C@H](O)[C@H](O)[C@H](C)CCCC result=2,9
molecule="CCCCCCCCCCCCCCCCCCCC(=O)NC(C)C(O)CC(O)CCCCC(O)CC(C)CC(OC(=O)CC(CC(=O)O)C(=O)O)C(OC(=O)CC(CC(=O)O)C(=O)O)C(C)CCCC (stereo not drawn)" result=0,0
molecule=CCCCCCCCCCCCCCCCCC(=O)N[C@@H](C)[C@@H](O)C[C@H](O)CCCC[C@@H](O)C[C@H](C)C[C@H](O)[C@H](O)[C@H](C)CCCC result=2,2
molecule="CCCCCCCCCCCCCCCC(=O)NC(C)C(O)CC(O)CCCCC(O)CC(C)CC(OC(=O)CC(CC(=O)O)C(=O)O)C(OC(=O)CC(CC(=O)O)C(=O)O)C(C)CCCC (stereo not drawn)" result=0,0

---

experiment: In vivo formation of NAFB1 and NAHFB1 in rat kidney and liver (HPLC-ESI-MS/MS); design: unit not given here; settings: Liver; treatment FB1 2 mg/kg BW ip, 5 days
Items are presented alongside their recorded N-acyl-derivative in tissue sample, analysis a.
observable: N-acyl-derivative in tissue sample, analysis a

compound="CCCCCCCCC=CCCCCCCCCCCCCCC(=O)NC(C)C(O)CC(O)CCCCC(O)CC(C)CC(OC(=O)CC(CC(=O)O)C(=O)O)C(OC(=O)CC(CC(=O)O)C(=O)O)C(C)CCCC (centres unmarked) [FB1C24:1]" result=9,0
compound="CCCCCCCCCCCCCCCCCC(=O)N[C@@H](C)[C@@H](O)C[C@H](O)CCCC[C@@H](O)C[C@H](C)C[C@H](O)[C@H](O)[C@H](C)CCCC [HFB1C18:0]" result=0,0
compound="CCCCCCCC/C=C\\CCCCCCCCCCCCCC(=O)N[C@@H](C)[C@@H](O)C[C@H](O)CCCC[C@@H](O)C[C@H](C)C[C@H](O)[C@H](O)[C@H](C)CCCC [HFB1C24:1]" result=0,4
compound="CCCCCCCCCCCCCCCCCCCCCC(=O)NC(C)C(O)CC(O)CCCCC(O)CC(C)CC(OC(=O)CC(CC(=O)O)C(=O)O)C(OC(=O)CC(CC(=O)O)C(=O)O)C(C)CCCC (centres unmarked) [FB1C22:0]" result=2,9
compound="CCCCCCCCCCCCCCCCCCCCCC(=O)N[C@@H](C)[C@@H](O)C[C@H](O)CCCC[C@@H](O)C[C@H](C)C[C@H](O)[C@H](O)[C@H](C)CCCC [HFB1C22:0]" result=0,0

---

Documented N-acyl-derivative in tissue sample, analysis b across a set of compounds
test: In vivo formation of NAFB1 and NAHFB1 in rat kidney and liver (HPLC-ESI-MS/MS); design: unit not given here; conditions: Liver; treatment HFB1 1 mg/kg BW ip, 5 days
observable: N-acyl-derivative in tissue sample, analysis b

compound="CCCCCCCCC=CCCCCCCCCCCCCCC(=O)NC(C)C(O)CC(O)CCCCC(O)CC(C)CC(OC(=O)CC(CC(=O)O)C(=O)O)C(OC(=O)CC(CC(=O)O)C(=O)O)C(C)CCCC (stereo not drawn)" result=0,0
compound=CCCCCCCCCCCCCCCCCCCCCCCC(=O)N[C@@H](C)[C@@H](O)C[C@H](O)CCCC[C@@H](O)C[C@H](C)C[C@H](O)[C@H](O)[C@H](C)CCCC result=23,5
compound="CCCCCCCCCCCCCCCCCCCC(=O)NC(C)C(O)CC(O)CCCCC(O)CC(C)CC(OC(=O)CC(CC(=O)O)C(=O)O)C(OC(=O)CC(CC(=O)O)C(=O)O)C(C)CCCC (stereo not drawn)" result=0,0
compound=CCCCCCCC/C=C\CCCCCCCCCCCCCC(=O)N[C@@H](C)[C@@H](O)C[C@H](O)CCCC[C@@H](O)C[C@H](C)C[C@H](O)[C@H](O)[C@H](C)CCCC result=140,5
compound="CCCCCCCCCCCCCCCCCC(=O)NC(C)C(O)CC(O)CCCCC(O)CC(C)CC(OC(=O)CC(CC(=O)O)C(=O)O)C(OC(=O)CC(CC(=O)O)C(=O)O)C(C)CCCC (stereo not drawn)" result=0,0
compound=CCCCCCCCCCCCCCCCCCCCCC(=O)N[C@@H](C)[C@@H](O)C[C@H](O)CCCC[C@@H](O)C[C@H](C)C[C@H](O)[C@H](O)[C@H](C)CCCC result=45,8
compound=CCCCCCCCCCCCCCCCCCCC(=O)N[C@@H](C)[C@@H](O)C[C@H](O)CCCC[C@@H](O)C[C@H](C)C[C@H](O)[C@H](O)[C@H](C)CCCC result=13,1
compound="CCCCCCCCCCCCCCCC(=O)NC(C)C(O)CC(O)CCCCC(O)CC(C)CC(OC(=O)CC(CC(=O)O)C(=O)O)C(OC(=O)CC(CC(=O)O)C(=O)O)C(C)CCCC (stereo not drawn)" result=0,0
compound=CCCCCCCCCCCCCCCC(=O)N[C@@H](C)[C@@H](O)C[C@H](O)CCCC[C@@H](O)C[C@H](C)C[C@H](O)[C@H](O)[C@H](C)CCCC result=44,3
compound="CCCCCCCCCCCCCCCCCCCCCC(=O)NC(C)C(O)CC(O)CCCCC(O)CC(C)CC(OC(=O)CC(CC(=O)O)C(=O)O)C(OC(=O)CC(CC(=O)O)C(=O)O)C(C)CCCC (stereo not drawn)" result=0,0
compound="CCCCCCCCCCCCCCCCCCCCCCCC(=O)NC(C)C(O)CC(O)CCCCC(O)CC(C)CC(OC(=O)CC(CC(=O)O)C(=O)O)C(OC(=O)CC(CC(=O)O)C(=O)O)C(C)CCCC (stereo not drawn)" result=0,0
compound=CCCCCCCCCCCCCCCCCC(=O)N[C@@H](C)[C@@H](O)C[C@H](O)CCCC[C@@H](O)C[C@H](C)C[C@H](O)[C@H](O)[C@H](C)CCCC result=2,0
